# ASSAY NOTES: amyloid nucleation score (Sup35N fusion, yeast selection) (log enrichment); library NNK1; higher = more nucleation; inactive = no reads after selection;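 also: zero at mode of non-aggregating sequences after 7 days selection at 30°C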
ATTRIBUTE MEASURED: amyloid nucleation score

[
  {
    "SUBSTANCE": "CLGQDKLWNFVFTFLYLLQF",
    "ATTRIBUTE MEASURED": "amyloid nucleation score",
    "REPORTED": -0.172
  },
  {
    "SUBSTANCE": "RSVPLFDHPWNRVTLRFSIL",
    "ATTRIBUTE MEASURED": "amyloid nucleation score",
    "REPORTED": 0.714
  },
  {
    "SUBSTANCE": "VKCGLG",
    "ATTRIBUTE MEASURED": "amyloid nucleation score",
    "REPORTED": 0.696
  },
  {
    "SUBSTANCE": "KLGCYTL",
    "ATTRIBUTE MEASURED": "amyloid nucleation score",
    "REPORTED": 0.367
  }
]

Q: Query (substance): SVVFGSSYRNAVGCWTWSQG ; field requested: amyloid nucleation score
Ans: 0.6

Q: Can you share its amyloid nucleation score? I mean this substance: PNSYASVHSNHKDIREAMYL
Ans: 0.021

Q: Any idea what amyloid nucleation score was measured for DPEVIGLIVCNM ?
Ans: -1.16

Q: Report amyloid nucleation score for HNYVWCSPC please.
Ans: 7.69

Q: Given the entry TLVFYRVQGFGIPKSQLTGE , report its measured amyloid nucleation score.
Ans: -0.675

The measured values listed here are drawn from the supplement of paper PMC12042874.
